assay: Identification of proteins required for the processing of the EWS-FLI1 nascent transcript; conditions: TC32 Ewing sarcoma NR0B1-luc vs CMV-luc, 48 h; screened at 20 nM (by protocol);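 further: robust z of luciferase light less the median z of siRNAs with the same seed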
Over roughly 59,000 sequences, the read-out has its median near -0.00055; the lowest 2% begin near -2. This excerpt belongs to a sample that is enriched for the lowest values.
Value kind: seed-corrected z-score
Output: the number by itself.

Reference set (3 entries):
| Query sequence | Value kind | Test value |
| --- | --- | --- |
| UUAAUGGUGACCUUGACCU against C19orf47 | seed-corrected z-score | -0.413 |
| UCUACUAUCAUUGUCCCUU against TAL1 | seed-corrected z-score | 0.0482 |
| UUCGCAUUGCUUCUAACUC against UACA | seed-corrected z-score | 0.538 |

Prompt: Consider the sequence UCAUUUUGAAUUGAAGAUG against FAM76A . State its measured seed-corrected z-score.
Completion: 0.228

Prompt: Consider the sequence UGCCGUUUCAUCUUGUACC against NKX2-4 . State its measured seed-corrected z-score.
Completion: -2.69

Prompt: Consider the sequence UAGCCAUUCUCGCUCAUGC against AZU1 . State its measured seed-corrected z-score.
Completion: 0.88

Prompt: Consider the sequence AUAGGUACCAGGUAUGAGC against FOXM1 . State its measured seed-corrected z-score.
Completion: 0.087

Prompt: Consider the sequence UCAGUUGCUUAUGAUAGUC against CCDC73 . State its measured seed-corrected z-score.
Completion: -2.71

Prompt: Consider the sequence UUUGGUGAUUUCAUAAUCC against PCDH18 . State its measured seed-corrected z-score.
Completion: -0.027

Prompt: Consider the sequence AAUCUUAAAUUUUCCGAGC against RGS7 . State its measured seed-corrected z-score.
Completion: -0.282

Prompt: Consider the sequence UAUCUUGUGGUGGUAGAGC against METTL23 . State its measured seed-corrected z-score.
Completion: 0.782

Prompt: Consider the sequence UUCAAAGUAUCGUUCUUUC against PANX3 . State its measured seed-corrected z-score.
Completion: 1.35

----------
assay: Identification of proteins required for the processing of the EWS-FLI1 nascent transcript; conditions: TC32 Ewing sarcoma NR0B1-luc vs CMV-luc, 48 h; screened at 20 nM (by protocol);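 further: robust z of luciferase light less the median z of siRNAs with the same seed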
The full ranking holds about 59,000 sequences; the median of the read-out is about -0.00055, and the lowest 2% start at about -2. This excerpt belongs to a sample that is enriched for the lowest values.
Value kind: seed-corrected z-score
Output: the number by itself.

Reference set (5 entries):
| Query sequence | seed-corrected z-score |
| --- | --- |
| UCACAAACCACGUUACACG against PABPC3 | -0.495 |
| ACAGUUUCGAAGGCGAAUG against ABCB9 | -1.83 |
| UAUCAUUGCGUGUUGCUGC against BBOF1 | 0.0553 |
| UCUGGAUUAACGGUGGUCU against NOVA1 | -3.04 |
| UCUACCAACAGCAAGAUAC against PLEKHG4B | -0.565 |

Prompt: Consider the sequence UGUCUAAUAAGGCCUGAGC against ZFP3 . State its measured seed-corrected z-score.
Completion: -0.177

Prompt: Consider the sequence UUCGAUUCCAAGCCUUACG against CCDC113 . State its measured seed-corrected z-score.
Completion: 0.591

Prompt: Consider the sequence UUCCGAGAUAUGGAGGUAC against KIAA0368 . State its measured seed-corrected z-score.
Completion: 0.95

Prompt: Consider the sequence UGGUUGUACGCGAUGUCCG against FZD1 . State its measured seed-corrected z-score.
Completion: -3.54

----------
experiment: Identification of proteins required for the processing of the EWS-FLI1 nascent transcript; conditions: TC32 Ewing sarcoma NR0B1-luc vs CMV-luc, 48 h; screened at 20 nM (by protocol);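 further: robust z of luciferase light less the median z of siRNAs with the same seed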
Whole data set: some 59,000 sequences, median the read-out near -0.00055, cut for the lowest 2% near -2. The sample as a whole holds a higher share of the lowest values than the screen did.
Value kind: seed-corrected z-score
Output: the number by itself.

Reference set (4 entries):
| Query sequence | Value kind | Test value |
| --- | --- | --- |
| UAGAAAGUCUUUACUAUGU against PIGA | seed-corrected z-score | -1.02 |
| AUAGCUUCCACUUUAGCGG against KDM5A | seed-corrected z-score | -3.29 |
| UUGGGUGUCAGGAUCUCGU against MYH14 | seed-corrected z-score | -2.4 |
| UCUGUUCGAUCAUCCGUGC against ACP6 | seed-corrected z-score | -0.281 |

Prompt: Consider the sequence UCUGGAGUGUUUGGGCUGC against CICP18 . State its measured seed-corrected z-score.
Completion: -3.73

Prompt: Consider the sequence ACACCAGUGAUUACUGUGC against FLJ44635 . State its measured seed-corrected z-score.
Completion: -0.245

----------
sequences and their reported seed-corrected z-score
assay: Identification of proteins required for the processing of the EWS-FLI1 nascent transcript; conditions: TC32 Ewing sarcoma NR0B1-luc vs CMV-luc, 48 h; screened at 20 nM (by protocol);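 further: robust z of luciferase light less the median z of siRNAs with the same seed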
In all, about 59,000 sequences were measured (the read-out: median about -0.00055, lowest 2% from about -2 on). This excerpt belongs to a sample that is enriched for the lowest values.

Reference set (4 entries):
| Query sequence | seed-corrected z-score |
| --- | --- |
| UUUGUAAUCAUACGGACAG against ZFAND5 | 0.868 |
| UAGAGGACCUUCAUGUUGU against THY1 | 0.624 |
| AUUCUUAAACGUGAUUUCC against NICN1 | 0.117 |
| UUUCGGUACGUGUAGUAGC against STRA6 | 0.803 |

Prompt: Consider the sequence UAUCUUCACUGAAUUGACC against ARL8B . State its measured seed-corrected z-score.
Completion: 0.269

Prompt: Consider the sequence AAUUGUUCACUGACCAGGC against WNT8A . State its measured seed-corrected z-score.
Completion: -0.645

Prompt: Consider the sequence UUGCGAACAAUAGGGUUAG against PZP . State its measured seed-corrected z-score.
Completion: -0.222

----------
assay: Identification of proteins required for the processing of the EWS-FLI1 nascent transcript; details: TC32 Ewing sarcoma NR0B1-luc vs CMV-luc, 48 h; screened at 20 nM (by protocol);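 further: robust z of luciferase light less the median z of siRNAs with the same seed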
Over roughly 59,000 sequences, the read-out has its median near -0.00055; the lowest 2% begin near -2. Shown is part of a subset that was picked to be rich in the lowest values.
Label Met when seed-corrected z-score is strictly below 0.8; at or above that, label Not met.

| Query sequence | Assigned label |
| --- | --- |
| UUGCUAUUCCUCCUGGUAG against IRF2BP2 | Met |
| UUCACUGAUCUGAAAGUUG against NAA10 | Not met |
| UACUUGACUGAAAUGUCUC against ZNF829 | Met |

Prompt: Input UACCAGAUGUCUUUUGUGC against IL33 ; condition: seed-corrected z-score strictly below 0.8. Does it hold?
Completion: Met

Prompt: Input UGAACUUCUGGAGUCCCUC against CCDC115 ; condition: seed-corrected z-score strictly below 0.8. Does it hold?
Completion: Not met

Prompt: Input UACGCUUGAAGUACCGAUG against SLC7A1 ; condition: seed-corrected z-score strictly below 0.8. Does it hold?
Completion: Met

Prompt: Input UCUUUGCUAGGUAAAAAGC against PRUNE ; condition: seed-corrected z-score strictly below 0.8. Does it hold?
Completion: Not met

Prompt: Input AAAGUCAGCACUUCGAUCC against MCTP1 ; condition: seed-corrected z-score strictly below 0.8. Does it hold?
Completion: Met

Prompt: Input UCUGCACUUGUCAAUAUCC against MED10 ; condition: seed-corrected z-score strictly below 0.8. Does it hold?
Completion: Met

Prompt: Input UAUCUUCUCACUAACACUC against PEX12 ; condition: seed-corrected z-score strictly below 0.8. Does it hold?
Completion: Met

Prompt: Input ACAGCUACCACAAAUGCAG against NDUFB3 ; condition: seed-corrected z-score strictly below 0.8. Does it hold?
Completion: Not met

----------
test: Identification of proteins required for the processing of the EWS-FLI1 nascent transcript; details: TC32 Ewing sarcoma NR0B1-luc vs CMV-luc (EWS-FLI1 target promoter against control promoter), 48 h; screened at 20 nM (by protocol);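 further: robust z of luciferase light less the median z of siRNAs with the same seed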
The full ranking holds about 59,000 sequences; the median of the read-out is about -0.00055, and the lowest 2% start at about -2. The sample as a whole holds a higher share of the lowest values than the screen did.
sequences and their reported seed-corrected z-score
Output: the number by itself.

| Query sequence | Value kind | Test value |
| --- | --- | --- |
| AAACUUUGGAUGUUUUUGG against PPBP | seed-corrected z-score | 0.549 |
| AAUCUCUCGGUUUCGAUUC against HYKK | seed-corrected z-score | 1.15 |
| ACGGAUUCUAGUUUAGAUG against KIAA0232 | seed-corrected z-score | 2.72 |
| UUACUAACAUCUUCUCGUC against PKN2 | seed-corrected z-score | 0.115 |
| UAAUCGUUGGGAUCCAGUC against PCDHA13 | seed-corrected z-score | 0.188 |
| AUACAUGCAGCUGUGGUUG against GABRB1 | seed-corrected z-score | -1.3 |
| UCUCUUUGUGGUGUACUUG against FGF13 | seed-corrected z-score | -12.9 |
| UUAGGUUCAACAUCCACAA against SNRPD1 | seed-corrected z-score | -2.57 |
| UGAGUUCUGAUCGCAGUUC against MCC | seed-corrected z-score | -0.00975 |
| AUCUUGGUAACAAACUUGG against TRPV4 | seed-corrected z-score | -3.43 |

Prompt: Consider the sequence GAAGGUGCAGAUCUGUUUG against SCX . State its measured seed-corrected z-score.
Completion: -2.92

Prompt: Consider the sequence UUAGGGUCCCUCAUCUUCA against LOXL4 . State its measured seed-corrected z-score.
Completion: 0.627

Prompt: Consider the sequence AAACGAAACAUGACGACAC against RSG1 . State its measured seed-corrected z-score.
Completion: -0.0435

Prompt: Consider the sequence AUUGUAUACAGCGAGUUCU against GP1BA . State its measured seed-corrected z-score.
Completion: 0.181

Prompt: Consider the sequence UUGCAGAGCAUGUGAGUCC against KRTAP13-3 . State its measured seed-corrected z-score.
Completion: -0.281
